Test system: CAMA1
Experiment: CellTiter-Glo Viability Assay, breast cancer
Format: cell-based
Conditions: Homo sapiens, CAMA-1, 96 h; CAMA1, breast cancer, four days; read-out: EC50
pEC50: −log10 of the molar value.
quantity.measured: pEC50

Given the entry CN(C)Cc1cncc(-c2ccc3[nH]nc(-c4cc5c(-c6ccoc6)ccnc5[nH]4)c3c2)c1 , report its measured pEC50.
< 5.00

Given the entry O=C1CCc2cccc(c2)-c2cncc(c2)NC(=O)c2n[nH]c3ccc(cc23)-c2cncc(c2)CN1 , report its measured pEC50.
< 5.00

Given the entry CN1CCCn2cc(nn2)-c2nccc3[nH]c(nc23)-c2n[nH]c3ccc(cc23)-c2cncc(c2)C1 , report its measured pEC50.
< 5.00

====

Tested on: MCF7
Experiment: CellTiter-Glo Viability Assay, breast cancer
Assay type: cell-based
Conditions: Homo sapiens, 96 h; MCF7, breast cancer, four days; read-out: EC50
pEC50: −log10 of the molar value.
quantity.measured: pEC50

Record excerpt, results attached:
O=C(Nc1c[nH]nc1-c1nc2c(-c3cccc(F)c3)cncc2[nH]1)c1cccnc1 [Compound 91] = 6.47
CN(C)C1CN(c2cc(C(=O)Nc3cc4cc(-c5cnn(C)c5)ccc4cn3)ccn2)C1 [Compound 70] = 5.67
CN1CCN(c2cc(C(=O)Nc3cc4cc(-c5cnn(C)c5N)ccc4cn3)ccn2)CC1 [Compound 75] = 6.32

(A) O=C(Nc1cncc(-c2ccc3[nH]nc(-c4cc5cnccc5[nH]4)c3c2)c1)C1CCCCC1 [Compound 47]
(B) Cc1cc2ncc(-c3ccc4cnc(NC(=O)c5ccnc(N6CCN(C)CC6)c5)cc4c3)cc2[nH]1 [Compound 87]
(C) Cc1ncc(-c2ccc3cnc(NC(=O)c4cnn(C5CCN(C)CC5)c4)cc3c2)o1 [Compound 83]
(D) COc1ccc(NC(=O)c2n[nH]c3ccc(-c4cncc(CN5CCCCC5)c4)cc23)cn1 [Compound 59]
Order the 4 compounds from highest to lowest pEC50. Provide the ranking by listing each label in its place in the requested order.
C, D, A, B
(C: 6.31, D: 6.07, A: 5.71, B: 5.39)

====

Molecular target: CLK3 (Homo sapiens, UniProt P49761)
Sequence (P49761 whole entry): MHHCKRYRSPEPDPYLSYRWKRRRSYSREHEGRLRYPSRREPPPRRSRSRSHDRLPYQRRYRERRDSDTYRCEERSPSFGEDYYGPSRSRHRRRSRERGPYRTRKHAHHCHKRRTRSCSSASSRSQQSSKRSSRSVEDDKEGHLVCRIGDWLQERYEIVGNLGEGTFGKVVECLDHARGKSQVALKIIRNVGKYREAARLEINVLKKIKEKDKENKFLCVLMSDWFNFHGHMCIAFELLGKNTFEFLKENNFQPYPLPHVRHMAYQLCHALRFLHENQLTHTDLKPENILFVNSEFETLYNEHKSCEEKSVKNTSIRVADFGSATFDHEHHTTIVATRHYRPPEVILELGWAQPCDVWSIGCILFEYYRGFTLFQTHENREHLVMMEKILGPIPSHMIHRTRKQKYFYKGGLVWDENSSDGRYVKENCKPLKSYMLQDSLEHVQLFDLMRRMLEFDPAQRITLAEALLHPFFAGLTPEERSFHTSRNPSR
Assay: CLK3 kinase activity assay (Z-lyte, Ser/Thr 18 peptide)
pEC50: −log10 of the molar value.
quantity.measured: pEC50

Record excerpt, results attached:
COc1ccc(NC(=O)c2n[nH]c3ccc(-c4cncc(CN5CCCCC5)c4)cc23)cn1 [Compound 59] = 7.21
O=C(Nc1c[nH]nc1-c1nc2c(-c3cccc(F)c3)cncc2[nH]1)c1cccnc1 [Compound 91] = 7.65
CN1CCC(Oc2cc(NC(=O)c3n[nH]c4cc(F)c(-c5cnn(C)c5)cc34)ccn2)CC1 [Compound 35] = 7.70

(I) O=C(Nc1cncc(-c2ccc3[nH]nc(-c4cc5cnccc5[nH]4)c3c2)c1)C1CCCCC1 [Compound 47]
(II) CN(C)CCOc1cc(C(=O)Nc2cc3cc(-c4cnn(C)c4)ccc3cn2)ccn1 [Compound 73]
(III) Cc1nc(Nc2n[nH]c3c2CN(C(=O)N[C@H](CN(C)C)c2ccccc2)C3(C)C)c2sccc2n1 [Compound 25]
(IV) Cc1n[nH]c2cc(F)c(-c3cncc(CN4CCNCC4)c3)cc12 [Compound 63]
Order the 4 molecules from highest to lowest pEC50. Provide the ranking by listing each label in its place in the requested order.
I, II, III, IV
(I: 7.75, II: 7.51, III: 6.84, IV: 6.46)

(P) CN1CCN(c2ccc(NC(=O)c3n[nH]c4ccc(-c5cncc(NC(=O)C6CC6)c5)cc34)cn2)CC1 [Compound 60]
(Q) CN1CCN(c2cc(C(=O)Nc3cc4cc(-c5nnc(N(C)C)s5)ccc4cn3)ccn2)CC1 [Compound 84]
Form field 'greater pEC50' accepts P or Q ; which applies? Please respond with the label that marks your chosen entry.
P

====

System: ovarian cancer (4 cell lines)
Experiment: CellTiter-Glo Viability Assay, ovarian cancer
Assay type: cell-based
Settings: Homo sapiens, PA-1; PA1 cell line; inhibition of cancer cell proliferation; read-out: Ovarian cancer, EC50 (μM) PA1
quantity.measured: EC50 (µM)

(P) Cc1n[nH]c2ccc(-c3cncc(N[C@H]4CC[C@H](O)CC4)n3)cc12
(Q) CN(C)Cc1cncc(-c2cnc3[nH]nc(-c4nc5c(-c6cc(F)cc(N7CCOCC7)c6)cncc5[nH]4)c3c2)c1
Form field 'greater EC50' accepts P or Q ; which applies? Please respond with the label that marks your chosen entry.
Q

(A) CN1CCN(c2cc(C(=O)Nc3cc4cc(-c5cn(C)nn5)ccc4cn3)ccn2)CC1
(B) CN1CC=C(c2cc(C(=O)Nc3cc4cc(-c5cncc(NC(C)(C)C)n5)cnc4cn3)ccn2)CC1
(C) CN1CCN(c2cc(Nc3ncc4c(-c5ccc6ncccc6c5)c[nH]c4n3)ccn2)CC1
Order the 3 compounds from highest to lowest EC50. Provide the ranking by listing each label in its place in the requested order.
B, C, A
(B: 1.25 µM, C: 0.768 µM, A: 0.186 µM)

(I) CN1CCCCN(C)c2nccc3[nH]c(nc23)-c2n[nH]c3ccc(cc23)-c2cncc(c2)C1
(II) COc1ccc(NC(=O)c2n[nH]c3ccc(-c4cncc(CN5CCCCC5)c4)cc23)cn1
Form field 'greater EC50' accepts I or II ; which applies? Please respond with the label that marks your chosen entry.
II

(I) CN1CCC(Oc2ccc(NC(=O)c3n[nH]cc3/C=C/c3cccnc3)cn2)CC1
(II) CN1CCC(Oc2ccc(NC(=O)c3n[nH]c4cc(F)c(-c5cnn(C)c5)cc34)cc2)CC1
Form field 'greater EC50' accepts I or II ; which applies? Please respond with the label that marks your chosen entry.
I

====

Tested on: prostate cancer (5 cell lines)
Assay: CellTiter-Glo Viability Assay, prostate cancer
Type: cell-based
Settings: Homo sapiens, PC-3; PC3 cell line; inhibition of cancer cell proliferation; read-out: Prostate cancer EC50 PC3
pEC50: −log10 of the molar value.
quantity.measured: pEC50

Record excerpt, results attached:
CN1CCC(Oc2ccc(C(=O)Nc3cc4cc(-c5cnn(C)c5)ccc4cn3)cc2)CC1 = 6.22
CN(C)CCOc1cc(C(=O)Nc2cc3cc(-c4cnn(C)c4)ccc3cn2)ccn1 = 6.52
CN1CC=C(c2cc(C(=O)Nc3cc4cc(-c5cncc(NC(C)(C)C)n5)cnc4cn3)ccn2)CC1 = 5.48
CN1CCC(C(=O)Nc2c[nH]nc2-c2nc3c(-c4ccc(F)s4)cccc3[nH]2)CC1 = 7.03
CN1CCC(Oc2ccc(NC(=O)c3n[nH]c4cc(F)c(-c5cnn(C)c5)cc34)cc2)CC1 = 5.91

(A) CN(C)C1CN(c2cc(C(=O)Nc3cc4cc(-c5cnn(C)c5)ccc4cn3)ccn2)C1
(B) CN(C)C1CCN(c2cc(C(=O)Nc3ncc4ccc(-c5cn(C)nn5)cc4n3)ccn2)CC1
Form field 'greater pEC50' accepts A or B ; which applies? Please respond with the label that marks your chosen entry.
A

====

Tested on: MCF7
Test: CellTiter-Glo Viability Assay, breast cancer
Type: cell-based
Details: Homo sapiens, 96 h; MCF7, breast cancer, four days; read-out: EC50
pEC50: −log10 of the molar value.
quantity.measured: pEC50

Record excerpt, results attached:
O=C1CCc2cccc(c2)-c2cncc(c2)NC(=O)c2n[nH]c3ccc(cc23)-c2cncc(c2)CN1 [Compound 62] = < 5.00
CN(C)Cc1cncc(-c2cnc3[nH]nc(-c4nc5c(-c6cc(F)cc(N7CCOCC7)c6)cncc5[nH]4)c3c2)c1 [Compound 46] = < 5.00
c1cncc(-c2ccc3[nH]nc(-c4cc5c(-c6cccnc6)cncc5[nH]4)c3c2)c1 [Compound 48] = < 5.46

Given the entry CN1CCCn2cc(nn2)-c2nccc3[nH]c(nc23)-c2n[nH]c3ccc(cc23)-c2cncc(c2)C1 [Compound 57] , report its measured pEC50.
< 5.00

====

Molecular target: CLK3 (Homo sapiens, UniProt P49761)
Assay: CLK3 kinase activity assay (Z-lyte, Ser/Thr 18 peptide)
pEC50: −log10 of the molar value.
quantity.measured: pEC50

Record excerpt, results attached:
c1cncc(-c2ccc3[nH]nc(-c4nc5ccncc5[nH]4)c3c2)c1 = 7.40
CC(C)Nc1cncc(-c2ccc3cnc(NC(=O)c4cn(C5CCN(CCF)CC5)nn4)cc3c2)n1 = 7.92

(P) CN(C)Cc1cncc(-c2ccc3[nH]nc(-c4nc5c(-c6cc(F)cc(CNS(C)(=O)=O)c6)ccnc5[nH]4)c3c2F)c1
(Q) CN(C)Cc1cncc(-c2ccc3[nH]nc(-c4cc5c(-c6ccoc6)ccnc5[nH]4)c3c2)c1
For P and Q , which recorded pEC50 is lower? Please respond with the label that marks your chosen entry.
Q
(Q: 7.51, P: 7.74)

====

EC50 reference
System: ovarian cancer (4 cell lines)
Test: CellTiter-Glo Viability Assay, ovarian cancer
Type: cell-based
Settings: Homo sapiens, PA-1; PA1 cell line; inhibition of cancer cell proliferation; read-out: Ovarian cancer, EC50 (μM) PA1

CN1CCCn2cc(nn2)-c2nccc3[nH]c(nc23)-c2n[nH]c3ccc(cc23)-c2cncc(c2)C1 [Compound 57] = > 10 µM
CC(C)Nc1cncc(-c2ccc3cnc(NC(=O)c4cn(C5CCN(CCF)CC5)nn4)cc3c2)n1 [Compound 85] = > 10 µM
O=C1CCc2cccc(c2)-c2cncc3[nH]c(nc23)-c2n[nH]c3ccc(cc23)-c2cncc(c2)N1 [Compound 55] = > 3.5 µM
Cc1n[nH]c2ccc(-c3cncc(N[C@H]4CC[C@@H](N)CC4)n3)cc12 [Compound 64] = 0.2 µM

Now, please, on to the next molecule.
Given the entry O=C1CCc2cccc(c2)-c2cncc(c2)NC(=O)c2n[nH]c3ccc(cc23)-c2cncc(c2)CN1 [Compound 62] , report its measured EC50.
> 10 µM
